- target desc: MERTK (UniProt Q12866)
- Sequence (Q12866 whole entry, looked up): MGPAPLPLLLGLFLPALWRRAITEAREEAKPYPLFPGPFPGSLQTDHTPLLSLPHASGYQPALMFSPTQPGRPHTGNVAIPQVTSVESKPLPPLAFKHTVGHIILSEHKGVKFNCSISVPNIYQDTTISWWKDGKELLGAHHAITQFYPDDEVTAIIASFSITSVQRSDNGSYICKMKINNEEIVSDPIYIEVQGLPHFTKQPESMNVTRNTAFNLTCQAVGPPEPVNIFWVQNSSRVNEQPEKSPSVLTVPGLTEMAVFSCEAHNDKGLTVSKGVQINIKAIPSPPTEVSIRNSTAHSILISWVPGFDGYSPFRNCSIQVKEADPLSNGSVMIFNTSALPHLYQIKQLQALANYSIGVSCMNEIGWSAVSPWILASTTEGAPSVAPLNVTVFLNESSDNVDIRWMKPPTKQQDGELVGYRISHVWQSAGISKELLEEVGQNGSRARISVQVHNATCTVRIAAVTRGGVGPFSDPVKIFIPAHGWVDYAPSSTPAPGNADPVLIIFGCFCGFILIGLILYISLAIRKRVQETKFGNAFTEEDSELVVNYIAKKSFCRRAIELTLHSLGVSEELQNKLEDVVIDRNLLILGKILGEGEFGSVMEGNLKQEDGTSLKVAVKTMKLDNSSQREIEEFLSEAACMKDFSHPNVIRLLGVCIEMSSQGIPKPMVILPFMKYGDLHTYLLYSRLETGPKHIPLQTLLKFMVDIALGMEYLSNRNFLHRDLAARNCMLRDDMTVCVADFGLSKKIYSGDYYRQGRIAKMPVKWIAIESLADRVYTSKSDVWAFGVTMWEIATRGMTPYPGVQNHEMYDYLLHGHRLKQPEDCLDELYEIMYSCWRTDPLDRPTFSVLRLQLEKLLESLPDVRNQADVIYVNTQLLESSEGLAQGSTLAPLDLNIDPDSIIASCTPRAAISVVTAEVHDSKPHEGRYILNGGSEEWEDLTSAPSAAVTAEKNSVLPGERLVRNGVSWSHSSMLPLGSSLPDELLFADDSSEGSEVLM
- assay summary: phosphorylation enrichment, bacterial display (enrichment ratio); higher = better substrate or ligand; peptides without Tyr show the background
outcome measure: phosphorylation enrichment
Give the figure by itself; no unit, no explanation.

Per the records, this sequence ( MEKEKYVSFIS [JMJD1C_Y596_YF] ) has phosphorylation enrichment equal to 0.454

According to the records, this sequence MANFVYKAGPS [MAML2_Y515_M514V_YF] displays phosphorylation enrichment of 0.371

response.value for RSAGKYDVYFI [MECP2_Y120_L124F] (field: phosphorylation enrichment) = 1.02

***
Lookup result for PEEKVYLSRGD [CRACR2A_Y141_H136P] ; measured phosphorylation enrichment: 0.735

###

- target desc: Grb2 SH2 (UniProt P62993)
- Sequence (P62993 whole entry, looked up): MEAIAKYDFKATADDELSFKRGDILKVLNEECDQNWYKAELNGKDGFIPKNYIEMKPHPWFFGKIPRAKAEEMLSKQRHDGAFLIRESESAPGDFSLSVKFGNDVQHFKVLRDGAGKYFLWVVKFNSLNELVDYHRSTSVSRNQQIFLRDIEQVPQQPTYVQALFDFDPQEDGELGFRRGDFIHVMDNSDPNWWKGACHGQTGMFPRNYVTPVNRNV
- assay summary: SH2 binding enrichment of the phosphorylated peptide, bacterial display (enrichment ratio); higher = better substrate or ligand; peptides without Tyr show the background
outcome measure: SH2 binding enrichment

Readout SH2 binding enrichment for VVKTVYSLQPP [KNSTRN_Y87] , test system Grb2 SH2 (UniProt P62993), was 0.803

Assay Grb2 SH2 (UniProt P62993), sample EKRDAYVSCLN [GSR_Y150_R153C] , SH2 binding enrichment read: 1.19

With Grb2 SH2 (UniProt P62993) as the test system, SIKDKYVMALF [KCNH2_Y611_T613M_YF] showed SH2 binding enrichment of 1.06

Tested system Grb2 SH2 (UniProt P62993); SH2 binding enrichment recorded for EKKKFYDAKIE [CASP5_Y104_T106A_YF] was 0.686

Recorded SH2 binding enrichment for PLKFLYPNIDK [STAT1_Y668_YF] on Grb2 SH2 (UniProt P62993) was 0.714

Item: GVASDYKCIDP [VPS13B_Y1991] | System: Grb2 SH2 (UniProt P62993) | SH2 binding enrichment: 0.888

Lab entry: Grb2 SH2 (UniProt P62993) assay, sequence AIMSFYAALID [RYR1_Y2426] , SH2 binding enrichment = 0.978

Short answer on Grb2 SH2 (UniProt P62993) for SNFRAYATEPQ [TNNI3_Y29_H34Q_YF] , SH2 binding enrichment: 0.806

Others:
Response field SH2 binding enrichment (Grb2 SH2 (UniProt P62993)) for item YKGKNYKPLDL [RPL35_Y78_K77N] : 0.9

Grb2 SH2 (UniProt P62993) data for NSAFFYKTAEE [CCT6B_Y250_G247A] ; its SH2 binding enrichment: 1.19

The reported SH2 binding enrichment value, Grb2 SH2 (UniProt P62993), for NKVKFYIPFMN [NCR1_Y84_D87Y_YF] reads 1.64

###

- System: Fer (mouse)
- assay summary: phosphorylation enrichment, bacterial display (enrichment ratio); higher = better substrate or ligand; peptides without Tyr show the background
Rule: phosphorylation enrichment of 0.5 or more gives 1.0; anything lower gives 0.0.

Query: Item GDPTEYYSTAI [IGSF22_Y501] with phosphorylation enrichment of 0.5 or above?
Response: 1.0

Query: Reported phosphorylation enrichment reaches at least 0.5 for ITVCDYTNPCP [MYD88_Y276_T281P] ?
Response: 0.0

Query: Could you please find out whether IYGASYVPFAA [RBM47_Y541] has phosphorylation enrichment that meets 0.5 or exceeds it?
Response: 1.0

Query: Does the reported phosphorylation enrichment for CTTIHYNYLCN [TP53_Y234_M237L] fall at or above the 0.5 mark?
Response: 1.0

Query: hey, is phosphorylation enrichment for this one >= 0.5? SSMIDYKPLEK [MYOC_Y479_N480K]
Response: 0.0
